Reference source for all entries: the supplement of paper PMC9170038

system: K4 kissing-loop RNA reporter; assay: apparent KD of K4 kissing-loop reporter; higher = weaker reporter binding; conditions: Eterna round: R107; input ligand: tryptophan 2.4 mM;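 further: bound reporter read as fluorescence of individual clusters on recovered sequencing chips by microscopy, with normalized cluster intensities fitted with a binding model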
Threshold rule: apparent KD of K4 kissing-loop reporter greater than or equal to 300 nM is true; below that, false.

Request: Does the reported apparent KD of K4 kissing-loop reporter for UGAUACCAGACGGCCGCCACUCCUGCAGUCAAAGACUGCUAAAAGGAAAUCGUCCAGUGAUGUUGGAGGACCGGGUCUGGUAUCU [TrypBX 14 #SwitchBubble #Palindromic #StaticStem] fall at or above the 300 nM mark?
Result: true

Request: Does the reported apparent KD of K4 kissing-loop reporter for GCCUUUGUACAGUCCGUUUGUCAUGUGGAUACCAGCAGGAUAGCUUGCCCUUGGCAGCCAUCCAUUUAAUGUAGUGAUGUUACGC [theeternabot_exclusion_KL_Theo_A_13] fall at or above the 300 nM mark?
Result: true

Request: Does the reported apparent KD of K4 kissing-loop reporter for UGUAAGCGCGUAGAUACCAGCAGACGAGUGAUGUUCGAGAGAUUAAGGAAAAGAAAGUGAUGCCCUUGGCAGCUAAUCAUAAGCG [whbob_Ex_Theo_B_sa95] fall at or above the 300 nM mark?
Result: false

Request: Does the reported apparent KD of K4 kissing-loop reporter for UCCUGCAAUCUGCCACGAAAGUGGAUUGAUACCAGAGUCGAAAGACUCCCUUGGCAGCGAGUGAUGUUCGUAGCAGGUAAAUAAA [MatMod 6 - Jieux - Exclusion - Theophylline A] fall at or above the 300 nM mark?
Result: false

Request: Does the reported apparent KD of K4 kissing-loop reporter for AAAAUAAAGGAGUGAUGUUCCAUAUGUGAUACCAGCCACGAAAGUGGCCCUUGGCAGCACUGCCAAGUGGACGAAAACGUCCACA [#OpenEnded 5 #StaticStem #K4Early] fall at or above the 300 nM mark?
Result: false

###

system: MS2 coat protein; experiment: apparent KD of MS2 coat protein; designed switch direction (-1 OFF switch, 1 ON switch): -1; higher = weaker reporter binding; settings: Eterna round: R95; input ligand: microRNA oligo, concentration not stated
Provide the reported apparent KD of MS2 coat protein of each item.
One number for each entry, in nM.

Please give apparent KD of MS2 coat protein for each item listed below.
1. UUUUAACAUGAGGAUCACCCAUGUGAGGAUAUCGAAAUUUAUAUUUAUAUUUAUAUAUCGAGAAGGCACAUUUU [JMF 96] (puzzle: Exclusion 1)
2. GAUGGACAUGAGGAUCACCCAUGUAAGGAUAUACGGUUGGUAGAGAGAGAGAGGAAUGGUAGAAGGUACGGAGG [JR_Exclu1_Sub052] (puzzle: Exclusion 1)
3. CAGGUGUUAGGAUAUCGGAGAUCGAGACCGACGGGAUGAGCCGAGAAGGAACAUGAGGAUCACCCAUGUAGGUG [JR_Exclu4_Sub034] (puzzle: Exclusion 4)

Result:
[118, 43.1, 400]

###

Provide the reported apparent KD of MS2 coat protein of each item.
system: MS2 coat protein; assay: apparent KD of MS2 coat protein; designed switch direction (-1 OFF switch, 1 ON switch): 1; higher = weaker reporter binding; conditions: input ligand: FMN 200 uM
State the value with its unit after it.

Past entries and their recorded results:
>>> observed("UAAAAGAAGUUAGGAUAUGGUGAAGUACUGUGGCCAGAAGGGACGACUAACCGAGAAAGACAUGAGGAUCACCCAUGUCCACAG [Eternabot solution 20] (Eterna round: R96, puzzle: Same State NG 1)")
"86.5 nM"
>>> observed("GGUAGGUUACUACCAAUCUACAUGAGGAUCACCCAUGUGUAGGAGGAUAUGGUACCUAUUUGGUACCAGAAGGCCUGAUUAAUU [Fiskers NG3ss - 8] (Eterna round: R96, puzzle: Same State NG 3)")
"115 nM"
>>> observed("UGUUGUUAAUUAGGAUAUGGUCACAUGAGGAUCACCCAUGUAAUGUCGAUGCUAUGUGGACACGAUCAGAAGGAAUGGCUAACA [SameState NG2 #93] (Eterna round: R96, puzzle: Same State NG 2)")
"21.3 nM"

# ---- query sequence ----
apparent KD of MS2 coat protein in this record for UGUUGUAUUACAGGAUAUCUAGUAUUUGUAUUUAGAGAAGGGUAUUCACAUGAGGAUCACCCAUGUAUAUACGAGGAAGUUGUG [JMF's solution 42] (Eterna round: R96, puzzle: Same State NG 1) : 53.7 nM
